Molecular target: ATP synthase subunit e (ATP5I) (Homo sapiens)
Construct: gene ATP5ME; full-length human ATP5I, N-terminal 6x-His-tagged, expressed in E. coli (mainly oligomers, mostly decamers)
Sequence (P56385 whole entry): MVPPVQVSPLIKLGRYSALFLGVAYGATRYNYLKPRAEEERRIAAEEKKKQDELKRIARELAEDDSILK
Assay: SPR, BFB immobilized on streptavidin chip, recombinant ATP5I as analyte, steady-state fit; supported by streptavidin pull-down and immunoblot
Format: binding
measurement.label: Kd

Task: Fill in the recorded Kd for this compound, with ATP synthase subunit e (ATP5I) (Homo sapiens) as test system: N=C(N)NC(=N)NCCCCCCNC(=O)CCCCC1SCC2NC(=O)NC21 (stereo not shown) [compound 3, BFB]
Result: ~11.1 µM
